B1: ALKBH7 (parent)
chain: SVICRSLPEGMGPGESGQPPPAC

Variants of: B1
Test: protein stability index of a GFP-peptide fusion (GPS, HEK-293T) (PSI 1-6); higher = more stable;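 note: lentivirally expressed fusions sorted by FACS into six bins by GFP to DsRed ratio, PSI derived from sequencing read proportions per bin multiplied by bin number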
Conditions: c terminus: native
Classification field: enter met for protein stability index values not below 3, not met for values below it.

entrySequence: SVICRSLQEGMGPGESGQPPPAC [P8Q]
groupLabel: not met

entrySequence: SVICRSLPEGMGPGESGQPPQAC [P21Q]
groupLabel: met

entrySequence: SVICRSLPEGMGPGESGQPPPNC [A22N]
groupLabel: met

entrySequence: SVICRSLPEIMGPGESGQPPPAC [G10I]
groupLabel: not met

entrySequence: SVICRSLPEGMGQGESGQPPPAC [P13Q]
groupLabel: not met

entrySequence: SVICRSLPEGMGPGENGQPPPAC [S16N]
groupLabel: not met

Input: Decide: is the reported value of protein stability index for SVICRSLPEGMGPMESGQPPPAC [G14M] equal to or greater than 3?
Output: not met

These data points were gathered from the supplement of paper PMC10567573.
